target: CRFR^2 expressed by A7r5 cells, P47866; assay: cell-based or functional assay
Sequence (P47866 20-411): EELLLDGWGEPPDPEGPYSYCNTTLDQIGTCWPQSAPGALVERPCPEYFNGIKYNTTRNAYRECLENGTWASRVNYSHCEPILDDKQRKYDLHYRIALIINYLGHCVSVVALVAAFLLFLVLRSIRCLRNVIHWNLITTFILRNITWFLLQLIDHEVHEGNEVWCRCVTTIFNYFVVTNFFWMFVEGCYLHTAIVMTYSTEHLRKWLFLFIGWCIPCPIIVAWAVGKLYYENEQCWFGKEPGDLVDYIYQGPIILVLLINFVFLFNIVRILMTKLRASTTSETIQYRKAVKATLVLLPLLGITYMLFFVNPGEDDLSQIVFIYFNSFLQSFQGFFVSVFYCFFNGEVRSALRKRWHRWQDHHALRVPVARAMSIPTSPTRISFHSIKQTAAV
No end group written: not given here.
measured.endpoint: cAMP A7r5 (EC50, nM)

binder	cAMP A7r5 (EC50, nM)
IVLSLDVPIGLLQILLEQARARAAREQATTNARILARV-NH2 [hUcn 2]	0.11

A: IVLSLDVPIGLLQILLEQARARAAREQATTNARILARVGHC-OH [hUcn 2-GHC-OH]
B: IVLSLDVPIGLLQILLEQARARAAREQATTNARILARVGH-OH [hUcn 2-GH-OH]
**Q:** Between the entries labelled A and B , which has a larger cAMP A7r5 (EC50, nM) value on record? Pick one and reply with its label.
**A:** A
(A: 13.9 nM, B: 2.9 nM)
